Numbers sourced from patent US20240390298A1.

# System: L6-myotubes
# assay_details: Glucose uptake in differentiated L6-myotubes (3H-2-deoxyglucose), compared to isoproterenol
# Format: cell-based
# experimental_setup: agonist 1×10^−5 M, 50 nM 3H-2-deoxyglucose, read-out: Biological example 1: glucose uptake, activity compared to that of isoproterenol
parameter_measured: Emax at 10 µM

input: Need Emax at 10 µM, item "CC(C)(NC[C@H](O)c1cccc(F)c1)[C@H]1CC[C@@H](C(=O)O)CC1"
output: 25 to 50%

input: Would you mind doing "CO[C@H]1CC[C@H](CCNC[C@H](O)c2cccc(F)c2)CC1" as well?
output: 25 to 50%

input: # iterate: "O[C@@H](CNC[C@H]1CC[C@H](O)CC1)c1cncc(F)c1"
output: < 25%

input: Another compound to look at: "CC(C)(C[C@H]1CC[C@@H](C(=O)O)CC1)NC[C@H](O)c1cncc(F)c1"
output: 25 to 50%

input: Try "CC(C)(NC[C@H](O)c1cncc(F)c1)[C@H]1CC[C@H](N)CC1" next.
output: < 25%

input: One more compound: "O[C@@H](CNCC[C@H]1CC[C@H](OCc2ccccc2)CC1)c1cncc(F)c1"
output: < 25%

input: What about this compound? "O[C@@H](CNCC[C@H]1CC[C@H](OCc2ccccc2)CC1)c1cccc(F)c1"
output: 25 to 50%

input: Let us now turn to "CS(=O)(=O)N[C@H]1CC[C@H](CNC[C@H](O)c2cncc(F)c2)CC1"
output: 25 to 50%

input: Please give the result for "CO[C@H]1CC[C@@H](C(C)(C)NC[C@H](O)c2cccc(F)c2)CC1" too.
output: < 25%

###

Exercise: state measured Emax at 10 µM for each of the molecules provided.
# Test system: L6-myotubes
# assay_details: Glucose uptake in differentiated L6-myotubes (3H-2-deoxyglucose), compared to isoproterenol
# Assay type: cell-based
# experimental_setup: agonist 1×10^−5 M, 50 nM 3H-2-deoxyglucose, read-out: Biological example 1: glucose uptake, activity compared to that of isoproterenol

input: Recorded Emax at 10 µM for "CC(=O)N[C@H]1CC[C@@H](CNC[C@H](O)c2cncc(F)c2)CC1" with L6-myotubes, please?
output: 25 to 50%

input: And what about the molecule "CC(C)(NC[C@H](O)c1cncc(F)c1)[C@H]1CC[C@H](NS(C)(=O)=O)CC1" ?
output: 25 to 50%

input: Try this molecule too: "CC(C)(CC[C@H]1CC[C@@H](C(=O)O)CC1)NC[C@H](O)c1cccc(F)c1"
output: 25 to 50%

input: Please answer likewise for "CC(C)(NC[C@H](O)c1cncc(F)c1)[C@H]1CC[C@@H](O)CC1"
output: 25 to 50%

input: Now give it for "O[C@@H](CNC[C@H]1CC[C@H](OCc2ccccc2)CC1)c1cccc(F)c1" too.
output: 25 to 50%

input: Now the same for "CC(C)(C[C@H]1CC[C@H](C(=O)O)CC1)NC[C@H](O)c1cncc(F)c1"
output: < 25%

input: Check "O[C@@H](CNC[C@H]1CC[C@@H](OCc2ccccc2)CC1)c1cccc(F)c1" too.
output: 25 to 50%

input: Again, but for "CC(C)(C[C@H]1CC[C@@H](C(=O)O)CC1)NC[C@H](O)c1cccc(F)c1"
output: 25 to 50%

input: Can you check O[C@@H](CNCCCC1CCC(OCc2ccccc2)CC1)c1cncc(F)c1 (stereo partly shown) next?
output: 25 to 50%

input: And then COC1CCC(CCCNC[C@H](O)c2cccc(F)c2)CC1 (stereo partly shown) , what is it?
output: 25 to 50%

input: # repeat for "CC(=O)N[C@H]1CC[C@H](CNC[C@H](O)c2cncc(F)c2)CC1"
output: 25 to 50%

input: Moving on to "O[C@@H](CNC[C@H]1CC[C@H](O)CC1)c1cccc(F)c1"
output: 25 to 50%

input: Next record, please: "O[C@@H](CNCCC[C@H]1CC[C@H](O)CC1)c1cncc(F)c1"
output: 25 to 50%
